target: T1, recombinant human CD3 (human CD3eg linker) (Homo sapiens, UniProt P07766+P09693); test: Biacore T200 SPR affinity of Dual-Fab antibodies to human CD3; assay type: binding; settings: 25 degrees C, pH 7.4
T1 construct: made in house; host or cells: FreeStyle293F
T1 sequence (P07766+P09693 fused): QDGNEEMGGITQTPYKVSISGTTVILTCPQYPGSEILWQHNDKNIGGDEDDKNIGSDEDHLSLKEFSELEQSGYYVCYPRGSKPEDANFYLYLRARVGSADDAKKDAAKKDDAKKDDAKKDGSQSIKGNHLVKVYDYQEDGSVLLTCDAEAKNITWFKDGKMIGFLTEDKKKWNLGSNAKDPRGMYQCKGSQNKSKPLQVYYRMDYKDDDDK

MOLECULE | UNIT ABBREV | CD3 Koff
H1610L0939: affinity matured Dual-Fab variant, VH SEQ ID NO 94, VL SEQ ID NO 145 (antibody, V domains shown) VH: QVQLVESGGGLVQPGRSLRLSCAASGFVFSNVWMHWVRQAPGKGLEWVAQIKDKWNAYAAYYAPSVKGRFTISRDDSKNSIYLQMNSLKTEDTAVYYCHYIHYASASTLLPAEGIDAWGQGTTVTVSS VL: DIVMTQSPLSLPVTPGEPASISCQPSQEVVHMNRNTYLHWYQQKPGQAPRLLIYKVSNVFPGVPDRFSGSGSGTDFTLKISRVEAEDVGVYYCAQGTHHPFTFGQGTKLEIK | s⁻¹ | 0.00253
H183L072: parental Dual-Fab (CD3/CD137), VH SEQ ID NO 90, VL SEQ ID NO 142 (antibody, V domains shown) VH: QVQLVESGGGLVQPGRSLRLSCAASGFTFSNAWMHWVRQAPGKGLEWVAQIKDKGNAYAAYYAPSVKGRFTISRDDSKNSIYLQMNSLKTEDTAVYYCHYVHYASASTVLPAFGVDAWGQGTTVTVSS VL: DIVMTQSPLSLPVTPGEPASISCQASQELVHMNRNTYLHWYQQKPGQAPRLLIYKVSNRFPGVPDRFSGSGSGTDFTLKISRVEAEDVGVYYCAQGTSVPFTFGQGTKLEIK | s⁻¹ | 0.012
H1651L0581: affinity matured Dual-Fab variant, VH SEQ ID NO 98, VL SEQ ID NO 143 (antibody, V domains shown) VH: QVQLVESGGGLVQPGRSLRLSCAASGFVFSNVWFHWVRQAPGKGLEWVAQIKDKYNAYADYYAPSVEGRFTISRDDSKNSIYLQMNSLKTEDTAVYYCHYVHYASASTLLPAEGVDAWGQGTTVTVSS VL: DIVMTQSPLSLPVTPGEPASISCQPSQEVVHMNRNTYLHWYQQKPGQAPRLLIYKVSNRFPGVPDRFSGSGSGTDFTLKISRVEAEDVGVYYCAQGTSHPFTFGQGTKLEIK | s⁻¹ | 0.0371
H1673L0581: affinity matured Dual-Fab variant, VH SEQ ID NO 100, VL SEQ ID NO 143 (antibody, V domains shown) VH: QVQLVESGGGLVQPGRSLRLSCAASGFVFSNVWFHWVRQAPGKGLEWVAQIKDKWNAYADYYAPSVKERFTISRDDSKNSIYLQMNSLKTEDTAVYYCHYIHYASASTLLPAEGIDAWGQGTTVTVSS VL: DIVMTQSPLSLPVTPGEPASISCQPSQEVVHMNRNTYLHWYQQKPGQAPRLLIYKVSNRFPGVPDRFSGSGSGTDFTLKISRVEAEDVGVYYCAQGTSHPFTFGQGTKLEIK | s⁻¹ | 0.00106
